# Test system: Spodoptera litura
# Assay Notes: Drug metabolism in fourth instar larval stage of Spodoptera litura assessed in excrements after feeding diet containing compound by HPLC analysis
# Type: ADME, organism-based
# Details: in vivo, po
Property Label: Drug metabolism

• O=c1c(-c2ccc(O)cc2)coc2cc(O[C@@H]3O[C@H](CO)[C@@H](O)[C@H](O)[C@H]3O)cc(O)c12 = Active
• O=c1c(-c2ccc(O)cc2)coc2cc(O)cc(O)c12 = Active
• CO[C@H]1[C@H](O)[C@@H](O)[C@@H](O)[C@H](O)[C@@H]1O = Active

* * *

# System: Spodoptera litura
# Assay Notes: Antifeedant activity against fourth instar larval stage of Spodoptera litura on fresh cabbage leaves
# Format: functional, organism-based
Activity calls are given as the source filed them. The calls are words filed in the database; no cut-off is given here.
Property Label: Activity

• O=c1c(-c2ccc(O)cc2)coc2cc(O[C@@H]3O[C@H](CO)[C@@H](O)[C@H](O)[C@H]3O)cc(O)c12 = inactive
• O=c1c(-c2ccc(O)cc2)coc2cc(O)ccc12 = inactive
• O=c1c(-c2ccc(O)cc2)coc2cc(O)cc(O)c12 = inactive
• CO[C@H]1[C@H](O)[C@@H](O)[C@@H](O)[C@H](O)[C@@H]1O = inactive
